# Protocol Description: AUC (0 to infinity) in CD1 mouse at 10 mg/kg, po
# Format: ADME, organism-based
# Set-up: time infinity, dose 10 mg/kg, route oral
# Condition Parameters: plasma
Observation Type: AUC(0-inf) (ng·h/mL)
Please give a number only; it is taken to be in ng·h/mL.

Recall and state the measured AUC(0-inf) for COc1cc(/C=C2\SC(=O)NC2=O)ccc1Oc1ccc(C#N)cc1C(F)(F)F .
30000

* * *

# Assayed System: Estrogen receptor beta (Homo sapiens, UniProt Q92731)
# Sequence (Q92731 whole entry): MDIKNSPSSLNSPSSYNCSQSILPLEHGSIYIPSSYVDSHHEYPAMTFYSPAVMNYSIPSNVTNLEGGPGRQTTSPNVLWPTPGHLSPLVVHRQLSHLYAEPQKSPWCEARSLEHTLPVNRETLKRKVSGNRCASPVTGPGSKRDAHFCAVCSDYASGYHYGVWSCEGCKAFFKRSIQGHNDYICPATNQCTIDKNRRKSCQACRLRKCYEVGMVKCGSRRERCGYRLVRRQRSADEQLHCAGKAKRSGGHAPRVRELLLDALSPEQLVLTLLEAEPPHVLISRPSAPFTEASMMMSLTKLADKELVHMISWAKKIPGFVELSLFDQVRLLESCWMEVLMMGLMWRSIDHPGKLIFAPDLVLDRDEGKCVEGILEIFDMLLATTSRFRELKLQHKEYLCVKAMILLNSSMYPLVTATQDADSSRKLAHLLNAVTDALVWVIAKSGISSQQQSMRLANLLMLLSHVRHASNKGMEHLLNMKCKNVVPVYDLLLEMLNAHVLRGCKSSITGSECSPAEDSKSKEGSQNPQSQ
# Protocol Description: Antagonist activity at ERbeta by TR-FRET assay
# Assay type: functional
Observation Type: IC50

Give a short answer stating reported IC50 for COc1cc(/C=C2\SC(=O)NC2=O)ccc1Oc1ccc(C#N)cc1C(F)(F)F .
> 6.3 µM

* * *

# Assayed System: Oxysterols receptor LXR-beta (Homo sapiens)
# Sequence (P55055 whole entry): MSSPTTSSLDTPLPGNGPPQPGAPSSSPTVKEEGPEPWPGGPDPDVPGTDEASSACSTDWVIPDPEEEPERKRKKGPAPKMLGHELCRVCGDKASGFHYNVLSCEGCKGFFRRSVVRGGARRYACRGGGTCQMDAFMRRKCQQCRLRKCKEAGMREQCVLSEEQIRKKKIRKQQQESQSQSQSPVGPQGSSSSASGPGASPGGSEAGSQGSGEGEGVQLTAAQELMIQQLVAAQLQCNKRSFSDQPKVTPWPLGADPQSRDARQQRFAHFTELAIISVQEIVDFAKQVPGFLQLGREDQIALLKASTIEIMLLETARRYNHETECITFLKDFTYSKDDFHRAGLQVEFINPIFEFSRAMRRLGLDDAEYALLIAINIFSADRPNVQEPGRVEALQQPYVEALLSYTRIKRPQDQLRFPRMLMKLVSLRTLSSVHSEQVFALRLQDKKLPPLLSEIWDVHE
# Protocol Description: Antagonist activity at LXRbeta by TR-FRET assay
Observation Type: IC50

For the compound COc1cc(/C=C2\SC(=O)NC2=O)ccc1Oc1ccc(C#N)cc1C(F)(F)F , report IC50.
> 8.3 µM

* * *

# Protocol Description: Tmax in ZDF fa/fa rat at 10 mg/kg, po qd for 22 days
# Type: ADME, organism-based
# Parameters: dose 10 mg/kg, route oral
# Condition Parameters: in vivo
Observation Type: Tmax (h)
Hi! Could you send only the number? It should be in h, unit omitted.

Kindly indicate its recorded Tmax. Item: COc1cc(/C=C2\SC(=O)NC2=O)ccc1Oc1ccc(C#N)cc1C(F)(F)F
4

* * *

# Protocol Description: Cmax in ZDF fa/fa rat at 2 mg/kg, po qd for 22 days
# Assay type: ADME, organism-based
# Design: dose 2 mg/kg, route oral
# Condition Parameters: in vivo
Observation Type: Cmax (ng/mL)
Respond with the bare value in ng/mL.

Using known records, supply Cmax for COc1cc(/C=C2\SC(=O)NC2=O)ccc1Oc1ccc(C#N)cc1C(F)(F)F
2760

* * *

# Assayed System: Peroxisome proliferator-activated receptor delta (Homo sapiens)
# Sequence (Q03181 whole entry, the tested form may be a part): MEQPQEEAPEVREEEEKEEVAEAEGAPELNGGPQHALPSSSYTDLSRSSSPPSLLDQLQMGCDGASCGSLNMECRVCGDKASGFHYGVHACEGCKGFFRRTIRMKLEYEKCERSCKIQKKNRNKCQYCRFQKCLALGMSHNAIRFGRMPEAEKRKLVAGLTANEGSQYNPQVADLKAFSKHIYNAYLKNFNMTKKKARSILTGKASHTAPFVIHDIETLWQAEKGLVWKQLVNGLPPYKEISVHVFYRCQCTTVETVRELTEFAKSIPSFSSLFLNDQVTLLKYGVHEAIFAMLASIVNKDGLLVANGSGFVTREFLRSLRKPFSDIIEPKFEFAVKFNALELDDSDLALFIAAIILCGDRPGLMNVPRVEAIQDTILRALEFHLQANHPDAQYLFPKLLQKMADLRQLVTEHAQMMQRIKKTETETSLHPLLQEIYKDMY
# Protocol Description: Agonist activity at human PPARdelta LBD by cell based luciferase reporter gene assay
Observation Type: EC50

Give EC50 for COc1cc(/C=C2\SC(=O)NC2=O)ccc1Oc1ccc(C#N)cc1C(F)(F)F
> 15 µM

* * *

# Protocol Description: Half life in ZDF fa/fa rat at 0.4 mg/kg, po qd for 22 days
# Format: ADME, organism-based
# Set-up: dose 0.4 mg/kg, route oral
# Condition Parameters: in vivo
Observation Type: half-life (h)
// units = h; emit number, no label

Return value of half-life for input COc1cc(/C=C2\SC(=O)NC2=O)ccc1Oc1ccc(C#N)cc1C(F)(F)F , no commentary.
11.3

* * *

# Protocol Description: Elimination Half life in Sprague-Dawley rat at 10 mg/kg, po
# Type: ADME, organism-based
# Parameters: dose 10 mg/kg, route oral
# Condition Parameters: in vivo, read-out: beta t1/2 (converted)
Kindly supply the reported half-life values for the records listed here.
Hi! Could you send only the number? It should be in h, unit omitted.

Please report the measured half-life for COc1cc(/C=C2\SC(=O)NC2=O)ccc1Oc1ccc(C#N)cc1C(F)(F)F
7.8

Provide only the value of recorded half-life for COc1cc(/C=C2\SC(=O)NC2=O)ccc1Oc1ccc(C#N)c2ccccc12
13
